Reported values of self-aminoacylation for individual entries
System: biotinyl-Phe-oxazolone
assay.remarks: self-aminoacylation, catalytic enhancement (BFO) (fold over background); higher = more active; k-Seq, kA / k0A0; sequences stand for … in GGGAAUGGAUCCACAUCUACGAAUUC…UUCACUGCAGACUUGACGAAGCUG
This sample holds only a part of the variants without activity.
Respond with the number and no other words.

sequence_input="CUACUUCAAAGAUUCGGUCUG [Fam1A.1 aminoacylation ribozyme variant]" system_name=biotinyl-Phe-oxazolone property_label=self-aminoacylation endpoint_result=0.503

Can you share its self-aminoacylation? I mean this sequence: CUAGUUCACACAAUCGGUCUG [Fam1A.1 aminoacylation ribozyme variant]
2.8

Please give the result for UAGCUUGCUAAUAGUCGCAAG [Fam3.1 aminoacylation ribozyme variant] too.
3.65

Please give the result for AUUACCCUGGGCCUCGAGUGA [Fam2.1 aminoacylation ribozyme variant] too.
22.6

Please give the result for AUUAGCCUGGUCAUCCAGUGA [Fam2.1 aminoacylation ribozyme variant] too.
10.8

Please give the result for GUUACCCUGGUCAUCGAGUGG [Fam2.1 aminoacylation ribozyme variant] too.
402
